Tested on: A-375
Test: Antiproliferative activity against human A375 cells assessed as cell viability at 1 uM after 48 hrs by trypan blue exclusion assay
Format: functional
Conditions: A-375, 48 h, read-out: Activity
value_type: viability at 1 µM (%)
Give bare numbers, in %.

// below: answered compounds
# cpd_smiles, value_type, recorded_result
records = [
    ("C#Cc1ccc(S(=O)(=O)Nc2cccc(-c3csc(NC(C)=O)n3)c2)cc1", "viability at 1 µM", 59.2),
    ("CCCCCCC#Cc1ccc(S(=O)(=O)Nc2cccc(-c3csc(Nc4ccccc4)n3)c2)cc1", "viability at 1 µM", 87.1),
    ("CC(=O)Nc1nc(-c2cccc(NS(=O)(=O)c3cccc(C#CCO)c3)c2)cs1", "viability at 1 µM", 85.4),
    ("CC(=O)Nc1nc(-c2cccc(NS(=O)(=O)c3ccc(C#C[Si](C)(C)C)cc3)c2)cs1", "viability at 1 µM", 94.3),
    ("CCCCCCC#Cc1ccc(S(=O)(=O)Nc2cccc(-c3csc(N)n3)c2)cc1", "viability at 1 µM", 97.6),
]

Go through the list and state viability at 1 µM for each entry.
1. CCCCCCCCc1ccc(S(=O)(=O)Nc2cccc(-c3csc(NC(C)=O)n3)c2)cc1
2. CCCCCCC#Cc1cccc(S(=O)(=O)Nc2cccc(-c3csc(NC(C)=O)n3)c2)c1
3. CCCCCCCCC#Cc1ccc(S(=O)(=O)Nc2cccc(-c3csc(NC(C)=O)n3)c2)cc1
4. CC(=O)Nc1nc(-c2cccc(NS(=O)(=O)c3cccc(C#C[Si](C)(C)C)c3)c2)cs1
5. CCCCCCc1ccc(S(=O)(=O)Nc2cccc(-c3csc(NC(C)=O)n3)c2)cc1
6. CC(=O)Nc1nc(-c2cccc(NS(=O)(=O)c3ccc(C#CC4CCCCC4)cc3)c2)cs1
7. CC(=O)Nc1nc(-c2cccc(NS(=O)(=O)c3ccc(C#CCCc4ccccc4)cc3)c2)cs1
8. CC(=O)Nc1nc(-c2cccc(NS(=O)(=O)c3ccc(C#CCO)cc3)c2)cs1

Result:
[34.8, 56.9, 39.6, 61.6, 49.9, 52.3, 11.5, 81.3]

Go through the list and state viability at 1 µM for each entry.
1. CCCCCC/C=C\c1ccc(S(=O)(=O)Nc2cccc(-c3csc(NC(C)=O)n3)c2)cc1
2. CCCCCCC#Cc1ccc(S(=O)(=O)Nc2cccc(-c3csc(NC(C)=O)n3)c2)cc1
3. CCCCC#Cc1ccc(S(=O)(=O)Nc2cccc(-c3csc(NC(C)=O)n3)c2)cc1

Result:
1. 48.8
2. 40.7
3. 73.2

Go through the list and state viability at 1 µM for each entry.
1. C#Cc1cccc(S(=O)(=O)Nc2cccc(-c3csc(NC(C)=O)n3)c2)c1
2. CCCCCCC#Cc1ccc(S(=O)(=O)Nc2cccc(-c3csc(NC)n3)c2)cc1

Result:
[74.3, 36.6]

Measured values drawn from ChEMBL document CHEMBL4038290 for this set.
